pKi: −log10 of the molar value.
Compiled notes: published pKi values involving Carbonic anhydrase 9 (Homo sapiens).
quantity-kind: pKi

# annotated cases, reported pKi shown
O=C(NNC(=S)NCc1ccccc1)c1ccccc1O : 6.01
CCCN1C(=O)c2ccccc2S1(=O)=O : 6.68
NS(=O)(=O)c1ccc(CNC(=S)N[C@@H]2O[C@H](CO)[C@@H](O[C@H]3O[C@H](CO)[C@@H](O)[C@H](O)[C@H]3O)[C@H](O)[C@H]2O)cc1 : 8.08

1: NC(=O)c1nnn(-c2ccc(S(N)(=O)=O)cc2)c1-c1ccc(Cl)cc1
2: O=C(O)/C=C/c1ccc(O)cc1
Could you tell me which of these two has the smaller pKi figure? First: 1 Second: 2 Answer = label.
2

P: COc1ccc(C(=O)CSc2nc(Nc3cccc(S(N)(=O)=O)c3)cc(-c3ccccc3)n2)cc1
Q: CCOC(=O)c1ccccc1NC(=O)Nc1ccc(OS(N)(=O)=O)cc1
R: CCNC(=S)NNC(=O)c1ccccc1O
Please list the entries, largest pKi first. Write out the labels following the order that was asked for.
Q, P, R

I: Cc1ccccc1CN1C(=O)c2ccccc2S1(=O)=O
II: NS(=O)(=O)c1ccc(CN2C(=O)c3cccc([N+](=O)[O-])c3C2=O)cc1
Task for the reader: decide whether I or II has the larger pKi. Answer = label.
I
(I: 6.66, II: 6.06)

* * *

pKi: −log10 of the molar value.
Compiled notes: published pKi values involving Carbonic anhydrase 9 (Homo sapiens).
quantity-kind: pKi

# annotated cases, reported pKi shown
NS(=O)(=O)c1ccc(Nc2nc(Cl)nc(Nc3ccccc3)n2)cc1 : 8.23
CC1CCCC2(C1)NC(=O)N(CC(=O)NCCc1ccc(S(N)(=O)=O)cc1)C2=O (stereo not given) : 6.32
Cc1c(CC(=O)Nc2ccc(S(N)(=O)=O)cc2)c(=O)oc2cc3occ(-c4ccc(F)cc4)c3cc12 : 6.96

a: NS(=O)(=O)CCN1C(=O)c2ccc3c4c(ccc(c24)C1=O)C(=O)N(CCc1ccc(S(N)(=O)=O)cc1)C3=O
b: CC(=O)OC[C@H]1O[C@@H](S(=O)(=O)NCCCCCOS(N)(=O)=O)[C@H](OC(C)=O)[C@@H](OC(C)=O)[C@@H]1OC(C)=O
Could you tell me which of these two has the smaller pKi figure? First: a Second: b Answer = label.
a

* * *

Compiled notes: published Ki values involving Carbonic anhydrase 9 (Homo sapiens, UniProt Q16790).
quantity-kind: Ki (nM)

# annotated cases, reported Ki shown
NS(=O)(=O)c1ccc(N2N=C(c3ccc(Cl)c(Cl)c3)CCC2=O)cc1 : 6
COc1cc2ccc(=O)oc2c(O[C@@H]2O[C@H](CO)[C@@H](O)[C@H](O)[C@H]2O)c1O : 370
Cc1ccc(N2CCN(C(=S)SCC(=O)Nc3ccc(S(N)(=O)=O)cc3)CC2)cc1 : 1250
CCn1cc(S(N)(=O)=O)c2cc(NC(=O)c3cc(-c4ccccc4C)nc4ccc(OC)cc34)ccc21 : 8650
Cn1cc(S(N)(=O)=O)c2cc(NC(=O)c3cc(Cl)nc(Br)c3)ccc21 : 15900

A: Cn1cc(S(N)(=O)=O)c2cc(NC(=O)c3cc(-c4ccc(Cl)cc4)nc4ccccc34)ccc21
B: CCCCCN1C(=O)c2ccccc2S1(=O)=O
Task for the reader: decide whether A or B has the larger Ki. Answer = label.
A

I: NS(=O)(=O)c1ccc(CNc2nc(Cl)nc(NCCC(=O)O)n2)cc1
II: COc1ccc(Nc2ccc(S(N)(=O)=O)cc2)nn1
Task for the reader: decide whether I or II has the larger Ki. Answer = label.
I
(I: 34.1 nM, II: 8.5 nM)
